# System: Saccharomyces cerevisiae
# EXPERIMENT_DESCRIPTION: protein stability index of tFT-peptide fusion (C-terminal peptide) (PSI (0-1 scale)); higher = more stable (slower turnover)
# MEASUREMENT_SETUP: genetic background: wild type; temperature: 30 C

| RESIDUE_STRING | ASSAY_SYSTEM | protein stability index |
| --- | --- | --- |
| ASPLFFHPSAPH | Saccharomyces cerevisiae | 0.689 |
| GGGPPARRRRGA | Saccharomyces cerevisiae | 0.652 |
| GCVVSIICGGRA | Saccharomyces cerevisiae | 0.564 |
| TTTFPFGRLVLS | Saccharomyces cerevisiae | 0.68 |
| FSFFVESFPASF | Saccharomyces cerevisiae | 0.668 |
| WPSHVTLPYGLV | Saccharomyces cerevisiae | 0.654 |
| ELVGRRAFRASR | Saccharomyces cerevisiae | 0.693 |
| AALIHLSFYSPS | Saccharomyces cerevisiae | 0.67 |
| GNGEGRKPPRPP | Saccharomyces cerevisiae | 0.619 |
| RVDLPFDRSVSD | Saccharomyces cerevisiae | 0.702 |
| DKSIGIYIVRSH | Saccharomyces cerevisiae | 0.731 |
| SQKWKGSSVIIG | Saccharomyces cerevisiae | 0.723 |
| LSTCHSPSLPAT | Saccharomyces cerevisiae | 0.739 |
| QYKEFYYQNNRR | Saccharomyces cerevisiae | 0.562 |
| NSRASHPTNQII | Saccharomyces cerevisiae | 0.789 |
| SSPPPHPPPVPR | Saccharomyces cerevisiae | 0.688 |
| KRTRRADVGKED | Saccharomyces cerevisiae | 0.65 |
| PTDFTPREAIGI | Saccharomyces cerevisiae | 0.68 |
| VWGLGGEFWWGV | Saccharomyces cerevisiae | 0.745 |
| KEGKGRGDGGRE | Saccharomyces cerevisiae | 0.697 |
| PLPPPVFLLFPL | Saccharomyces cerevisiae | 0.667 |
| GGSIKRFVILVL | Saccharomyces cerevisiae | 0.406 |
| DKDWDHGSLCIP | Saccharomyces cerevisiae | 0.692 |
| PLRVFFLVAFCL | Saccharomyces cerevisiae | 0.383 |
| YLFFHMVVLVVV | Saccharomyces cerevisiae | 0.157 |
| RSCCSFRLEPYC | Saccharomyces cerevisiae | 0.671 |
| SVVGHGVCGGRG | Saccharomyces cerevisiae | 0.649 |
| HFGRYLSSVFGV | Saccharomyces cerevisiae | 0.679 |
| LGKVAGLGAGRP | Saccharomyces cerevisiae | 0.719 |

###

# System: Saccharomyces cerevisiae;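 also: PSI is a weighted mean of sequencing reads over stability bins, variants kept only with over 10 reads, mCherry proximal and sfGFP distal, peptide attached via GGGS linker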
# EXPERIMENT_DESCRIPTION: protein stability index of tFT-peptide fusion (C-terminal peptide) (PSI (0-1 scale)); higher = more stable (slower turnover)
# MEASUREMENT_SETUP: genetic background: wild type; temperature: 30 C

| RESIDUE_STRING | ASSAY_SYSTEM | protein stability index |
| --- | --- | --- |
| PHWGKRINEAHT | Saccharomyces cerevisiae | 0.685 |
| PPLPSGLHPTLT | Saccharomyces cerevisiae | 0.693 |
| PVLPFPSPPAAS | Saccharomyces cerevisiae | 0.682 |
| TFENLFRLPWFK | Saccharomyces cerevisiae | 0.699 |
| SFLPDCLSLFLF | Saccharomyces cerevisiae | 0.612 |
| VVRWFGGGGVRG | Saccharomyces cerevisiae | 0.719 |
| PPPPPPPPAPPS | Saccharomyces cerevisiae | 0.68 |
| VGCFLDSLWDWV | Saccharomyces cerevisiae | 0.679 |
| VWLLSNGFLAVD | Saccharomyces cerevisiae | 0.706 |
| LNLWVVYRLLGV | Saccharomyces cerevisiae | 0.599 |
| VNQVRVSICDLL | Saccharomyces cerevisiae | 0.693 |
| PPPPPPFPSSPP | Saccharomyces cerevisiae | 0.698 |
| RGGGRGGRPRMC | Saccharomyces cerevisiae | 0.607 |
| SWPMLSVLADER | Saccharomyces cerevisiae | 0.717 |
| AEAKRKSTYKRW | Saccharomyces cerevisiae | 0.607 |
| PPPTSPRSPVPI | Saccharomyces cerevisiae | 0.697 |
| FAIFSGMSFGVY | Saccharomyces cerevisiae | 0.693 |
